Listing of entries alongside the reported Activity.
protocol-details: Cytotoxicity against bovine chondrocytes at 1 mM after 96 hrs by MTT cell viability assay
Assay type: cell-based, Bos taurus
recorded-conditions: cattle, 1000 µM
Put your answer as a value accompanied by its unit after it.

Solved entries:
compound	result
CC(=O)N[C@@H]1[C@@H](O)[C@H](O)[C@@H](CO)O[C@H]1O [N-ACETYLGLUCOSAMINE]	70%
COc1ccc(OP(=O)(N[C@H](C(=O)OC2CCCCC2)C(C)C)OC[C@H]2OC(O)[C@H](NC(C)=O)[C@@H](O)[C@@H]2O)cc1 (some centres not stated)	30%
COc1ccc(OP(=O)(NCC(=O)OCc2ccccc2)OC[C@H]2OC(O)[C@H](NC(C)=O)[C@@H](O)[C@@H]2O)cc1 (some centres not stated)	100%

Next compound, please.
Req: Using the record for COC(=O)[C@H](C)NP(=O)(OC[C@H]1OC(O)[C@H](NC(C)=O)[C@@H](O)[C@@H]1O)Oc1ccc(OC)cc1 (some centres not stated) , state its measured Activity.
Resp: 37%
